Molecular target: RXRβ (Homo sapiens, UniProt P28702)
Sequence (P28702 1-533): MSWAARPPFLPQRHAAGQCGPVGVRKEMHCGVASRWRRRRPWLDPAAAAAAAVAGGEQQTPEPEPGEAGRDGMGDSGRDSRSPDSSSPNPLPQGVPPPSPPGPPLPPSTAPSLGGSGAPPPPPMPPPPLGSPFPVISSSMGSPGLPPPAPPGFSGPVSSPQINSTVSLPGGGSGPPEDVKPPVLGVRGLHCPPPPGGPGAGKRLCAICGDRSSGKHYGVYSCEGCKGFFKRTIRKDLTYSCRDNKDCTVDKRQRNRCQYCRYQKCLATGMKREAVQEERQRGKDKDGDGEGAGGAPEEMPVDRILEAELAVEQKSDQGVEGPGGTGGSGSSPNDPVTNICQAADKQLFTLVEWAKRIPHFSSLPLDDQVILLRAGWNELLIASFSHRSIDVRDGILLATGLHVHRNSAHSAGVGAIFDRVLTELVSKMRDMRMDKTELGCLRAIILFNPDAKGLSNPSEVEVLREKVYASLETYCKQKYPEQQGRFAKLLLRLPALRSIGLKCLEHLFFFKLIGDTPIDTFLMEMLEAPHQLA
outcome measure: Kd

### Prompt Entry Cc1cc2c(cc1/C(=C/c1ccc(C(=O)C(=O)O)cc1)[Si](C)(C)C)C(C)(C)CCC2(C)C [Compound 192192] has what Kd?
### Response > 1 µM
